Listed next: entries and their corresponding log10 of Activity.
# EXPERIMENT DESCRIPTION: Binding affinity to double stranded DNA (unknown origin) assessed as compound concentration required for 30% displacement of thiazole orange from double stranded DNA by fluorescent intercalator displacement assay
Friendly reminder: values = log10 of Activity, unit µM.

Study these solved cases before continuing.
CN(C)CCCOc1ccc2ccc3c4c(nnc3c2c1)-c1ccccc1C4=O = 0.61
CN(C)CCCOc1ccc2c(ccc3c4c(nnc32)-c2ccccc2C4=O)c1 = 0.89
CN(C)CCOc1ccc2c(ccc3c4c(nnc32)-c2ccccc2C4=O)c1 = 1.20
CN(C)CCOc1ccc2ccc3c4c(nnc3c2c1)-c1ccccc1C4=O = 0.13

From here, focus on the item given below.
Tell me log10 of Activity reported for CN(C)CCCn1c(=O)c2nc3ccccc3nc2c2ccccc21
1.04
